Here's a batch of molecules along with measured AC50 for Glutamate receptor ionotropic, NMDA 1 (Rattus norvegicus).

// below: answered molecules
> print(dat)
                                   molecule  property.name  recorded.result
1  CCc1nc(N)nc(N)c1-c1ccc(Cl)cc1 [PYRIMETHAMINE]           AC50          > 10 µM
2  Cn1c(=O)c2c(ncn2CCOC(=O)C(C)(C)Oc2ccc(Cl)cc2)n(C)c1=O [THEOFIBRATE]           AC50          > 30 µM
3  COc1cc(C(=O)NS(=O)(=O)c2ccccc2C)ccc1Cc1cn(C)c2ccc(NC(=O)OC3CCCC3)cc12 [ZAFIRLUKAST]           AC50          > 10 µM
4  Oc1ccc(CCNCCCCCCNCCc2ccccc2)cc1O [DOPEXAMINE]           AC50          > 30 µM
5  CCOC(=O)C(C)(C)Oc1ccc(Cl)cc1 [CLOFIBRATE]           AC50          > 10 µM

Task: Could you tell me which AC50 is on file for O=C(O)c1ccc(NC(=O)[C@H](Cc2ccc(O)cc2)NC(=O)c2ccccc2)cc1 [BENTIROMIDE] ?
Output: > 10 µM

Task: Reported AC50 for Cn1cc(C(=O)[C@@H]2CCc3nc[nH]c3C2)c2ccccc21 [RAMOSETRON] : what is it?
Output: > 30 µM

Task: Reported AC50, molecule C/C=C(/C(=C/C)c1ccc(O)cc1)c1ccc(O)cc1 [DIENESTROL] : ____
Output: > 10 µM

Task: Could you share which AC50 value was measured for CC(C)(C)NCC(O)c1ccccc1Cl (stereo not drawn) [TULOBUTEROL] ?
Output: > 30 µM

Task: Which AC50 is reported for this molecule? CCCCOc1ccc(C(=O)CCN2CCCCC2)cc1 [DYCLONINE]
Output: > 10 µM

Task: // query AC50 value for entry `C[N+](C)(C)CCOP(=O)([O-])OC[C@H](O)CO`
Output: > 30 µM

Task: Can you share its AC50? I mean this molecule: CCCN1CCCC[C@H]1C(=O)Nc1c(C)cccc1C [ROPIVACAINE]
Output: > 30 µM

Task: What AC50 value was documented for this molecule, Cc1ccccc1-n1c(CF)nc2ccc(N)cc2c1=O [AFLOQUALONE] ?
Output: > 10 µM

Task: Name the reported AC50 value associated with the molecule CNCCc1ccc(OC(=O)C(C)C)c(OC(=O)C(C)C)c1 [IBOPAMINE]
Output: > 30 µM

Task: Fill in the blank: the reported AC50 of COc1cc(N)c(Cl)cc1C(=O)NC1CCN(CCCOc2ccc(F)cc2)CC1OC (stereo not drawn) [CISAPRIDE] is ____.
Output: > 10 µM
